Target: human leukocyte elastase (Homo sapiens, UniProt P08246)
Sequence (P08246 30-267): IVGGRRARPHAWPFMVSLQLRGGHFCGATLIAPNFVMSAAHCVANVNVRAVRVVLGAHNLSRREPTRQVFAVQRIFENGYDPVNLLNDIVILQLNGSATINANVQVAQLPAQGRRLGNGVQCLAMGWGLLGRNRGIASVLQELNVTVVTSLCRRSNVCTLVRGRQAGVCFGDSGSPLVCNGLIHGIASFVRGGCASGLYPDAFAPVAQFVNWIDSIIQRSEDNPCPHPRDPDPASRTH
Assay: Human leukocyte elastase (HLE) inhibition, progress-curve assay with MeOSuc-Ala-Ala-Pro-Val-pNA
Assay type: biochemical
Settings: substrate MeOSuc-Ala-Ala-Pro-Val-pNA, pH 7.8, 25° C., absorbance 410 nm, read-out: Ki (human leukocyte elastase inhibitory activity)
readout-type: log10 of Ki (log10 of the value in nM)
Scale: decimal log of Ki, Ki in nM.

Please review the following examples before continuing.
- compound: "COc1cc2c(c(C(C)C)c1OC)C(=O)N(c1c(F)c(F)nc(F)c1F)S2(=O)=O"
  data-value: 1.68
- compound: "CCOc1cccc2c1C(=O)N(c1c(F)c(F)nc(F)c1F)S2(=O)=O"
  data-value: 0.15

log10 of Ki for COc1ccc2c(c1)S(=O)(=O)N(c1c(F)c(F)nc(F)c1F)C2=O [Example 10A] is 1.87

Given item `CC(C)Oc1cc(C(C)C)c2c(c1)S(=O)(=O)N(c1c(F)c(F)nc(F)c1F)C2=O` , the value recorded as its log10 of Ki is 1.70

Lab note: measured log10 of Ki of `COc1cc(C(C)C)c2c(c1)S(=O)(=O)N(c1c(F)c(F)nc(F)c1F)C2=O` was 1.58

Reported log10 of Ki of `CCCc1c(OC)c(OC)cc2c1C(=O)N(c1c(F)c(F)nc(F)c1F)S2(=O)=O` : 1.20

For `COc1cc(OC)c2c(c1)S(=O)(=O)N(c1c(F)c(F)nc(F)c1F)C2=O` the compound record lists log10 of Ki as 0.60
